# assay-overview: Mean residence time in Wistar rat at 1 mg/kg, iv
# Type: ADME, organism-based
# Design: dose 1 mg/kg, route intravenous
# run-conditions: in vivo
reported-endpoint: MRT (h)

{"sample-smiles": "CCN(Cc1cc(C(F)(F)F)ccc1-c1cc(CC(=O)O)n2cccnc12)C(=O)C1CC1", "test-value": 2.6}

P: CCN(Cc1cc(C(F)(F)F)ccc1-n1cc(CC(=O)O)c2ccc(C)nc21)C(=O)C1CC1
Q: CCN(Cc1ccccc1-n1cc(CC(=O)O)c2ccc(C(F)(F)F)cc21)C(=O)C1CC1
R: CCN(Cc1cc(F)ccc1-c1cn(CC(=O)O)c2ccccc12)C(=O)C1CC1
S: CCN(Cc1cc(C(F)(F)F)ccc1-c1cn(CC(=O)O)c2ccc(C)nc12)C(=O)C1CC1
Sort these compounds on MRT so the largest reading comes first. List the labels in the requested order.
Q, P, R, S
(Q: 3.4 h, P: 2.3 h, R: 1.2 h, S: 0.3 h)
